Molecular target: Cannabinoid receptor 2 (Homo sapiens, UniProt P34972)
Sequence (P34972 whole entry): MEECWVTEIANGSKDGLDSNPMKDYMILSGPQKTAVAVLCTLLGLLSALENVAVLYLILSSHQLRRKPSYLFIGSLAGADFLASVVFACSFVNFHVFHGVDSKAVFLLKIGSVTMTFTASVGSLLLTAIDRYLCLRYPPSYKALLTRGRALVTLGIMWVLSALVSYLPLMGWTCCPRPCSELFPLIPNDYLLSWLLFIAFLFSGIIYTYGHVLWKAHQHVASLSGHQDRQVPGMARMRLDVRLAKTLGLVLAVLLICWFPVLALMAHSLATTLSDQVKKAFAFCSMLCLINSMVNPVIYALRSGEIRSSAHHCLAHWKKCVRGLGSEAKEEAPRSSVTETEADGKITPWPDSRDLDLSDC
Assay: Antagonist activity at human CB2 receptor assessed as inhibition of forskolin-stimulated cAMP accumulation in presence of JWH133
Type: functional
Conditions: read-out: pA2 (converted)
recordedEndpoint: Kb (nM)
Write the answer as a number in nM, unit excluded.

// query Bench note: what Kb did CCc1c(C(=O)NC23CC4CC(CC(C4)C2)C3)nc(C)n1-c1ccccc1 show?
// result 1

// query Try O=C(NC12CC3CC(CC(C3)C1)C2)c1nc(Cl)n(-c2ccccc2)c1Cl next.
// result 7.94

// query What would you report for CCc1nc(C(=O)NC23CC4CC(CC(C4)C2)C3)c(C)n1-c1ccccc1 ?
// result 5.01

// query Quick one: Cc1nc(C(=O)NC23CC4CC(CC(C4)C2)C3)c(C)n1-c1ccccc1
// result 1.58

// query Now consider C[C@H](NS(C)(=O)=O)c1ccc(S(=O)(=O)c2ccc(Cl)cc2S(=O)(=O)c2ccccc2F)cc1 and answer again.
// result 1

----------
Molecular target: UniProt:P34972
Experiment: Inverse agonist activity at human CB2 receptor assessed as inhibition of forskolin-stimulated cAMP accumulation after 4 hrs
Format: functional
Please provide measured EC50 for the entries that follow.
Write the answer as a number in nM, unit excluded.

// query EC50 lookup needed for Cc1nc(C(=O)NC23CC4CC(CC(C4)C2)C3)c(C)n1-c1ccccc1 , thanks.
// result 0.794

// query And the next one, CCc1c(C(=O)NC23CC4CC(CC(C4)C2)C3)nc(C)n1-c1ccccc1 ?
// result 0.251

// query # repeat for C[C@H](NS(C)(=O)=O)c1ccc(S(=O)(=O)c2ccc(Cl)cc2S(=O)(=O)c2ccccc2F)cc1
// result 5.01

// query What about CCc1nc(C(=O)NC23CC4CC(CC(C4)C2)C3)cn1-c1ccccc1 ?
// result 6.31

----------
Parameter 'readout' = pKi; parameter 'system' = Cannabinoid receptor 1 (Homo sapiens, UniProt P21554).
Sequence (P21554 whole entry): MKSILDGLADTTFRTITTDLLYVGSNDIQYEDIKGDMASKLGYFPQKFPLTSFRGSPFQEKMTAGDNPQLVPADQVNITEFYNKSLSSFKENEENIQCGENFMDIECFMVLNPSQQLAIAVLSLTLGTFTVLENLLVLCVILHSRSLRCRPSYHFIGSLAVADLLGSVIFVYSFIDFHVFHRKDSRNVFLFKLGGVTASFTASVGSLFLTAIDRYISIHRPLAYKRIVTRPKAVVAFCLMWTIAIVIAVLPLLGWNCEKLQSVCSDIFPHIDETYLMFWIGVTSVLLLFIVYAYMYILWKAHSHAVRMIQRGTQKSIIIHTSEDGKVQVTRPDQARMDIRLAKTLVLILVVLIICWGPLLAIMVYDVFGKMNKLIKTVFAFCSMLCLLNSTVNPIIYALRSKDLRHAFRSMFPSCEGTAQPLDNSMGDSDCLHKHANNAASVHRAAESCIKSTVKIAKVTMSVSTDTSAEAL
pKi: −log10 of the molar value.

// query Requested field: pKi. Item: CCc1nc(C(=O)NC23CC4CC(CC(C4)C2)C3)cn1-c1ccccc1
// result < 6.00

// query Continue with O=C(NC12CC3CC(CC(C3)C1)C2)c1nc(Cl)n(-c2ccccc2)c1Cl
// result < 6.00

// query Param item: CCc1c(C(=O)NC23CC4CC(CC(C4)C2)C3)nc(C)n1-c1ccccc1
// result < 5.00

// query // next record Cc1nc(C(=O)NC23CC4CC(CC(C4)C2)C3)c(Br)n1-c1ccccc1
// result < 5.00

// query Record: Cc1c(C(=O)NC[C@H]2C[C@@H]3C[C@H](C2)C3(C)C)ncn1-c1ccccc1
// result < 5.00

// query Another compound: CSc1c(C(=O)NC23CC4CC(CC(C4)C2)C3)nc(C)n1-c1ccccc1
// result < 5.00

// query Also, Cc1nc(C(=O)NC23CC4CC(CC(C4)C2)C3)c(C)n1C1CCCCC1 please.
// result < 5.00

// query Follow-up entry: Cc1nc(C(=O)NC23CC4CC(CC(C4)C2)C3)c(Cl)n1-c1ccccc1
// result < 5.00

----------
Organism: Homo sapiens
Experiment: Selectivity ratio of Ki for human CB1 to Ki for human CB2
recordedEndpoint: Ratio

// query For the compound shown here, O=C(NC12CC3CC(CC(C3)C1)C2)c1nc(Cl)n(-c2ccccc2)c1Cl , give the reported Ratio.
// result > 20

// query // repeat for CSc1c(C(=O)NC23CC4CC(CC(C4)C2)C3)nc(C)n1-c1ccccc1 and report
// result > 1000

// query Moving on to the next compound: CCc1c(C(=O)NC23CC4CC(CC(C4)C2)C3)nc(C)n1-c1ccccc1
// result > 9710

// query What do you have for Cc1nc(C(=O)NC23CC4CC(CC(C4)C2)C3)c(Br)n1-c1ccccc1 ?
// result > 1190

// query Query Cc1nc(C(=O)NC23CC4CC(CC(C4)C2)C3)c(Cl)n1-c1ccccc1 next
// result > 420

// query Try this compound next: Cc1nc(C(=O)NC23CC4CC(CC(C4)C2)C3)c(C)n1C1CCCCC1
// result > 500

// query Input CCCCc1c(C(=O)NC23CC4CC(CC(C4)C2)C3)nc(C)n1-c1ccccc1
// result > 102

// query What would you report for CCc1nc(C(=O)NC23CC4CC(CC(C4)C2)C3)cn1-c1ccccc1 ?
// result > 79

// query And then Cc1c(C(=O)NC[C@H]2C[C@@H]3C[C@H](C2)C3(C)C)ncn1-c1ccccc1 , what is it?
// result > 57

Data credit: ChEMBL document CHEMBL1158524
